Target: HDAC8 (Homo sapiens)
Construct: HDAC8 (full length, C-terminal His tag, BPS Bioscience, cat. #: 50008); purchased BPS Bioscience 50008
Sequence (Q9BY41 1-377): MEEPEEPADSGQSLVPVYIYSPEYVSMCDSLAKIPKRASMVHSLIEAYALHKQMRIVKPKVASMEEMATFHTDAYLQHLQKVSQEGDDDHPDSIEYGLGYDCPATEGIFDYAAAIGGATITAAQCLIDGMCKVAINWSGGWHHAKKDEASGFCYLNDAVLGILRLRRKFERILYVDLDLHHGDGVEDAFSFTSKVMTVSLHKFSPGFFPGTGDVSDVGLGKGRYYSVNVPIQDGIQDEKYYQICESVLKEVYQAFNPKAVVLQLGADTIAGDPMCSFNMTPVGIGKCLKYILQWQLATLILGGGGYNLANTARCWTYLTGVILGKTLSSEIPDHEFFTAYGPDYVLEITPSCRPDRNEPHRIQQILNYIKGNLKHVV
Assay: Recombinant HDAC µSPOT microarray binding assay;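 also: relative spot intensity from the six enzyme-concentration slides imaged together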
Settings: HDAC8 µSPOT microarray dose-response fit, Bottom Value; X = Asuha; sheet Fig. 3 HDAC8

| Substance | Bottom |
| --- | --- |
| H2A 100-115 (VTIAQGGVLPNIQAVL; UniProt P0C0S8 101-116, looked up, fragment) | 0.02 |
| H2B 67-82 (NDIFERIAGEASRLAH; UniProt P06899 68-83, looked up, fragment) | 0.03 |
| H2A 79-94 (IPRHLQLAIRNDEELN; UniProt P0C0S8 80-95, looked up, fragment) | 0.02 |
| H2B 64-79 (SFVNDIFERIAGEASR; UniProt P62807 65-80, looked up, fragment) | 0.02 |
| H2A 46-61 (GAPVYLAAVLEYLTAE; UniProt P0C0S8 47-62, looked up, fragment) | 0.02 |
| H2A 55-70 (LEYLTAEILELAGNAA; UniProt P0C0S8 56-71, looked up, fragment) | 0.02 |
| H2B 58-73 (AMGIMNSFVNDIFERI; UniProt P06899 59-74, looked up, fragment) | 0.01 |
| H2A 16-31 (TRSSRAGLQFPVGRVH; microarray-immobilized; UniProt P0C0S8 17-32, looked up, fragment) | 0.05 |
| H2A 37-52 (GNYSERVGAGAPVYLA; UniProt P04908 38-53, looked up, fragment) | 0.01 |
| H2B 61-76 (IMNSFVNDIFERIAGE; UniProt P62807 62-77, looked up, fragment) | -0.5 |

----------
target: HDAC1 (Homo sapiens, UniProt Q13547); construct: HDAC1 (full length, C-terminal His tag, C-terminal FLAG tag, BPS Bioscience, cat. #: 50051); FLAG (C); purchased BPS Bioscience 50051; assay: Recombinant HDAC µSPOT microarray binding assay;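 as to HillSlope: slides with spotted peptides incubated with six HDAC concentrations in HEPES buffer pH 7.4, spot intensities fitted by four-parameter logistic, EC50 as enzyme concentration giving half-maximal binding signal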; conditions: µSPOT microarray, recombinant HDAC1, Fig. 3; X = Asuha; Hill slope of the binding curve
Sequence (Q13547 whole entry): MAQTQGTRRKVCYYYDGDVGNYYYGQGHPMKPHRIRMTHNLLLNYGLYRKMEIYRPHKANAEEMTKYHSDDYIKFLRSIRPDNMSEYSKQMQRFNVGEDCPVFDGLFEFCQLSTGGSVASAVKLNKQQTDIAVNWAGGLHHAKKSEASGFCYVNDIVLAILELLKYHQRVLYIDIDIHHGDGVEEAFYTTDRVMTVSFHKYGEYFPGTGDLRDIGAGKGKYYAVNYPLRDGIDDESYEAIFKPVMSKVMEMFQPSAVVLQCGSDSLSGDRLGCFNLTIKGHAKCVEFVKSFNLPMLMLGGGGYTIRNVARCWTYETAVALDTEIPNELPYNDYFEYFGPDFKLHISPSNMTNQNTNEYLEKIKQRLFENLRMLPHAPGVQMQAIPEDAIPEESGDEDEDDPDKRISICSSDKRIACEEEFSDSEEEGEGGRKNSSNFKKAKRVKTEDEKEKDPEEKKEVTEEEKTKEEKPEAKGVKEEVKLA
One threshold, 1, splits the recorded HillSlope values: lower ones are satisfied, equal or higher ones are not satisfied.

| Substance | Category label |
| --- | --- |
| H2A 37-52 (GNYSERVGAGAPVYLA; UniProt P04908 38-53, looked up, fragment) | satisfied |
| H2A 46-61 (GAPVYLAAVLEYLTAE; UniProt P0C0S8 47-62, looked up, fragment) | not satisfied |
| H2A 100-115 (VTIAQGGVLPNIQAVL; UniProt P0C0S8 101-116, looked up, fragment) | not satisfied |
| H2B 58-73 (AMGIMNSFVNDIFERI; UniProt P06899 59-74, looked up, fragment) | satisfied |
| H2B 91-106 (SREIQTAVRLLLPGEL; UniProt P62807 92-107, looked up, fragment) | not satisfied |
| H2A 49-64 (VYLAAVLEYLTAEILE; UniProt P0C0S8 50-65, looked up, fragment) | not satisfied |
| H2B 67-82 (NDIFERIAGEASRLAH; UniProt P06899 68-83, looked up, fragment) | not satisfied |
| H2B 64-79 (SFVNDIFERIAGEASR; UniProt P62807 65-80, looked up, fragment) | not satisfied |
| H2A 40-55 (AERVGAGAPVYLAAVL; UniProt P0C0S8 41-56, looked up, fragment) | satisfied |
| H2A 79-94 (IPRHLQLAIRNDEELN; UniProt P0C0S8 80-95, looked up, fragment) | not satisfied |
| H2B 61-76 (IMNSFVNDIFERIAGE; UniProt P62807 62-77, looked up, fragment) | not satisfied |
| H2A 55-70 (LEYLTAEILELAGNAA; UniProt P0C0S8 56-71, looked up, fragment) | not satisfied |
| H2A 19-34 (SRAGLQFPVGRVHRLL; UniProt P04908 20-35, looked up, fragment) | satisfied |

----------
molecular target: HDAC3/NCoR2 (Homo sapiens); construct: HDAC3/NCoR2 (full length, C-terminal His tag, NCoR2 N-terminal GST tag); purchased BPS Bioscience 50003; test: Recombinant HDAC µSPOT microarray binding assay;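 also: relative spot intensity from the six enzyme-concentration slides imaged together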;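 as to Bottom (dose-response curve fit): peptide spots on cellulose slides incubated with rising HDAC enzyme concentrations, imaged together, four-parameter logistic fit, EC50 is enzyme concentration giving half-maximal binding signal, two experiments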; conditions: HDAC3 µSPOT microarray, Fig. 3; fitted bottom plateau of binding signal; X = Asuha
Sequence (O15379 whole entry): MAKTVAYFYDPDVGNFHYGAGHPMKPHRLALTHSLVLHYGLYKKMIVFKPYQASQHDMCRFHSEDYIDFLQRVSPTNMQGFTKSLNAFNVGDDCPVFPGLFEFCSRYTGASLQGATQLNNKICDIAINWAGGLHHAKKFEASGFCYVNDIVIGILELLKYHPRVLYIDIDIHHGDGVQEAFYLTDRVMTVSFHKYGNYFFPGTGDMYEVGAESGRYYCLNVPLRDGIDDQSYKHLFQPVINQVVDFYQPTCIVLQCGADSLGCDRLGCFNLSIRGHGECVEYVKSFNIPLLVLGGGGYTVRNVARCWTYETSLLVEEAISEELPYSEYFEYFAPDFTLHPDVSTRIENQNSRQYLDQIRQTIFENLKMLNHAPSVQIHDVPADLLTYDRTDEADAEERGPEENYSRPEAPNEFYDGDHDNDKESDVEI
Sequence (Q9Y618 389-480 partner limits assumed): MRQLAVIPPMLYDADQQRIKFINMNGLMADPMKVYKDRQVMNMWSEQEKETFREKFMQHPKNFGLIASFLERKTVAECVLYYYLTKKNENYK

| Substance | Bottom (dose-response curve fit) |
| --- | --- |
| H2A 79-94 (IPRHLQLAIRNDEELN; UniProt P0C0S8 80-95, looked up, fragment) | 0.01 |
| H2A 16-31 (TRSSRAGLQFPVGRVH; microarray-immobilized; UniProt P0C0S8 17-32, looked up, fragment) | 0.01 |
| H2B 64-79 (SFVNDIFERIAGEASR; UniProt P62807 65-80, looked up, fragment) | 0.01 |
| H2A 40-55 (AERVGAGAPVYLAAVL; UniProt P0C0S8 41-56, looked up, fragment) | 0 |
| H2B 61-76 (IMNSFVNDIFERIAGE; UniProt P62807 62-77, looked up, fragment) | 0.01 |
| H2A 100-115 (VTIAQGGVLPNIQAVL; UniProt P0C0S8 101-116, looked up, fragment) | 0 |
| H2B 91-106 (SREIQTAVRLLLPGEL; UniProt P62807 92-107, looked up, fragment) | 0.01 |
| H2A 49-64 (VYLAAVLEYLTAEILE; UniProt P0C0S8 50-65, looked up, fragment) | 0 |
| H2B 67-82 (NDIFERIAGEASRLAH; UniProt P06899 68-83, looked up, fragment) | 0.01 |
| H2A 19-34 (SRAGLQFPVGRVHRLL; UniProt P04908 20-35, looked up, fragment) | 0.02 |
| H2A 55-70 (LEYLTAEILELAGNAA; UniProt P0C0S8 56-71, looked up, fragment) | 0 |
| H2B 58-73 (AMGIMNSFVNDIFERI; UniProt P06899 59-74, looked up, fragment) | 0.02 |
| H2A 46-61 (GAPVYLAAVLEYLTAE; UniProt P0C0S8 47-62, looked up, fragment) | 0.01 |
| H2A 37-52 (GNYSERVGAGAPVYLA; UniProt P04908 38-53, looked up, fragment) | 0 |

----------
biological target: HDAC8 (Homo sapiens)
Non-standard residues stand in square brackets, D forms with d. Residues, ends and D or L forms follow the SMILES beside them. *: point of attachment. Asu = N[C@@H](CCCCCC(=O)O)C(=O)O; NHOH = ON*

| Compound | Ki [µM] |
| --- | --- |
| CC(=O)NCC(=O)NCC(=O)N[C@@H](CCCCCC(=O)NO)C(=O)N[C@@H](C)C(=O)N[C@@H](CCCNC(=N)N)C(=O)N[C@@H](C)C(=O)N[C@@H](CCCCN)C(=O)N[C@@H](C)C(=O)N[C@@H](CCCCN)C(=O)N[C@H](C(=O)N[C@@H](CCCNC(=N)N)C(=O)N[C@@H](CO)C(=O)N[C@@H](CO)C(=O)N[C@@H](CCCNC(=N)N)C(=O)N[C@@H](C)C(=O)NCC(=O)N[C@@H](Cc1c[nH]c2ccccc12)C(N)=O)[C@@H](C)O [9a] (Ac-GG[Asu](NHOH)ARAKAKTRSSRAGW-NH2) | 5.57 |

----------
Non-standard residues stand in square brackets, D forms with d. Residues, ends and D or L forms follow the SMILES beside them. *: point of attachment. Asu = N[C@@H](CCCCCC(=O)O)C(=O)O; NHOH = ON*
Entries below carry reported Ki on UniProtKB Q13547.
Outcome measure: Ki

| Compound | Outcome measure | Assay result |
| --- | --- | --- |
| CC(=O)N[C@@H](C)C(=O)N1CCC[C@H]1C(=O)N[C@@H](C)C(=O)N1CCC[C@H]1C(=O)N[C@@H](CCCCN)C(=O)N[C@@H](CCCCCC(=O)NO)C(=O)NCC(=O)N[C@@H](CO)C(=O)N[C@@H](CCCCN)C(=O)N[C@@H](CCCCN)C(=O)N[C@@H](C)C(=O)N[C@H](C(=O)N[C@H](C(=O)N[C@@H](CCCCN)C(=O)N[C@@H](C)C(=O)N[C@@H](CCC(N)=O)C(=O)N[C@@H](Cc1c[nH]c2ccccc12)C(N)=O)[C@@H](C)O)C(C)C [10a] (Ac-APAPK[Asu](NHOH)GSKKAVTKAQW-NH2) | Ki | 111 nM |
| CC(=O)NCC(=O)NCC(=O)N[C@@H](CCCCCC(=O)NO)C(=O)N[C@@H](C)C(=O)N[C@@H](CCCNC(=N)N)C(=O)N[C@@H](C)C(=O)N[C@@H](CCCCN)C(=O)N[C@@H](C)C(=O)N[C@@H](CCCCN)C(=O)N[C@H](C(=O)N[C@@H](CCCNC(=N)N)C(=O)N[C@@H](CO)C(=O)N[C@@H](CO)C(=O)N[C@@H](CCCNC(=N)N)C(=O)N[C@@H](C)C(=O)NCC(=O)N[C@@H](Cc1c[nH]c2ccccc12)C(N)=O)[C@@H](C)O [9a] (Ac-GG[Asu](NHOH)ARAKAKTRSSRAGW-NH2) | Ki | 31.1 nM |
| CC(=O)N[C@@H](C)C(=O)N[C@@H](CCCNC(=N)N)C(=O)N[C@@H](CCCCN)C(=O)N[C@@H](CO)C(=O)N[C@H](C(=O)NCC(=O)NCC(=O)N[C@@H](CCCCN)C(=O)N[C@@H](C)C(=O)N1CCC[C@H]1C(=O)N[C@@H](CCCNC(=N)N)C(=O)N[C@@H](CCCCCC(=O)NO)C(=O)N[C@@H](CCC(N)=O)C(=O)N[C@@H](CC(C)C)C(=O)N[C@@H](C)C(=O)N[C@H](C(=O)N[C@@H](Cc1c[nH]c2ccccc12)C(N)=O)[C@@H](C)O)[C@@H](C)O [13a] (Ac-ARKSTGGKAPR[Asu](NHOH)QLATW-NH2) | Ki | 17.9 nM |
| CC(=O)N1CCC[C@H]1C(=O)N[C@@H](CCCNC(=N)N)C(=O)N[C@@H](CCCCN)C(=O)N[C@@H](CCC(N)=O)C(=O)N[C@@H](CC(C)C)C(=O)N[C@@H](C)C(=O)N[C@H](C(=O)N[C@@H](CCCCN)C(=O)N[C@@H](C)C(=O)N[C@@H](C)C(=O)N[C@@H](CCCNC(=N)N)C(=O)N[C@@H](CCCCCC(=O)NO)C(=O)N[C@@H](CO)C(=O)N[C@@H](C)C(=O)N1CCC[C@H]1C(=O)N[C@@H](C)C(=O)N[C@@H](Cc1c[nH]c2ccccc12)C(N)=O)[C@@H](C)O [14a] (Ac-PRKQLATKAAR[Asu](NHOH)SAPAW-NH2) | Ki | 24.7 nM |

FYI, the data here is from paper PMC7782793.
